Test: survival rescue of mitochondrial mutant cells in low glucose, primary screen, MELAS cybrids, Rieske KO mouse fibroblasts, CellTiter-Glo (AID 1508586);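 also: z relative to plate mean and SD of compound and empty wells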
Settings: Rieske KO mouse fibroblast survival, CellTiter-Glo 72 h
readoutKind: z-score
// no unit, no text: just the number

For the molecule shown here, N=C(N)c1ccc2cc(OC(=O)c3ccc(N=C(N)N)cc3)ccc2c1 , give the reported z-score.
0.234

For the molecule shown here, CN(N=O)C(=O)N[C@@H]1[C@@H](O)[C@H](O)[C@@H](CO)O[C@@H]1O , give the reported z-score.
0.385

For the molecule shown here, COc1cc(O)c2c(c1)C(=O)c1cc(C)cc(O)c1C2=O , give the reported z-score.
0.659

For the molecule shown here, CN(C)CCN(Cc1cccs1)c1ccccn1 , give the reported z-score.
-0.164

For the molecule shown here, CCCCCCC[N+](CC)(CC)CCCCc1ccc(Cl)cc1 , give the reported z-score.
-0.71

For the molecule shown here, Cc1cccc(C)c1NC(=O)CN1CCN(CCCC(c2ccc(F)cc2)c2ccc(F)cc2)CC1 , give the reported z-score.
0.284

For the molecule shown here, CN1C(=O)OC(C)(C)C1=O , give the reported z-score.
-0.121

For the molecule shown here, CCC1=C[C@@H]2CN(C1)Cc1c([nH]c3ccccc13)[C@@](C(=O)OC)(c1cc3c(cc1OC)N(C)[C@H]1[C@@](O)(C(=O)OC)[C@H](OC(C)=O)[C@]4(CC)C=CCN5CC[C@]31[C@@H]54)C2 , give the reported z-score.
1.89

For the molecule shown here, C[N+](C)(C)CCO , give the reported z-score.
-0.171

For the molecule shown here, CC[C@H](c1ccc(O)cc1)[C@@H](CC)c1ccc(O)cc1 , give the reported z-score.
-0.231

====

Assay: decreased DLD-1 cellular survival, CellTiter-Glo luminescent readout, NPC compound collection, primary HTS (AID 1117346)
Conditions: DLD-1 viability, CellTiter-Glo luminescence; at 20 µM (top of the series)
readoutKind: viability decrease (inhibition) (%)
Give your result in % as a bare value.

For the compound shown here, CNC(=O)c1c(I)c(NC(C)=O)c(I)c(C(=O)O)c1I , give the reported viability decrease (inhibition).
-2.95

For the compound shown here, O=C1Cc2cc(CCN3CCN(c4nsc5ccccc45)CC3)c(Cl)cc2N1 , give the reported viability decrease (inhibition).
101

For the compound shown here, NCCNC(=O)c1ccc(Cl)cn1 , give the reported viability decrease (inhibition).
-10.3

For the compound shown here, C=CC(=O)Nc1cc2c(Nc3ccc(F)c(Cl)c3)ncnc2cc1OCCCN1CCOCC1 , give the reported viability decrease (inhibition).
101

For the compound shown here, O=c1cc[nH]c(=O)[nH]1 , give the reported viability decrease (inhibition).
3.55

For the compound shown here, COC(=O)C1=C(C)NC(C)=C(C(=O)OCCN(C)Cc2ccccc2)C1c1cccc([N+](=O)[O-])c1 (stereo unspecified) , give the reported viability decrease (inhibition).
84.9

For the compound shown here, CCN(CC)CCOc1ccc2c(c1)C(=O)c1cc(OCCN(CC)CC)ccc1-2 , give the reported viability decrease (inhibition).
38.8

For the compound shown here, COc1ccc2cccc(CCNC(C)=O)c2c1 , give the reported viability decrease (inhibition).
3.3

For the compound shown here, CN1CCN(c2c(F)cc3c(=O)c(C(=O)O)cn(CCF)c3c2F)CC1 , give the reported viability decrease (inhibition).
-10.7

For the compound shown here, CC(C(=O)O)c1ccc(C(=O)c2ccccc2)s1 (stereo unspecified) , give the reported viability decrease (inhibition).
10.6

For the compound shown here, CC(=O)N[C@H]1[C@H]([C@H](O)[C@H](O)CO)OC(C(=O)O)=C[C@@H]1N=C(N)N , give the reported viability decrease (inhibition).
2.95

====

Would you mind telling me the reported parasite load remaining of each entry?
Assay: liver-stage malaria parasite growth inhibition, primary screen, cell-based, HepG2, luciferase luminescence, HepG2 viability (AID 624349);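 also: 100% = mean of DMSO negative control wells on the same plate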
Settings: P. berghei liver stage in HepG2, luciferase luminescence, concentration not given here; stronger effect = lower value
Give your result in % as a bare value.

For the compound shown here, CC1(C)[C@@H](OC(=O)CCC(=O)O)CC[C@]2(C)[C@H]3C(=O)C=C4[C@@H]5C[C@@](C)(C(=O)O)CC[C@]5(C)CC[C@@]4(C)[C@]3(C)CC[C@@H]12 , give the reported parasite load remaining.
77.3

For the compound shown here, COc1ccc([C@@H]2CC(=O)c3c(O)cc(O[C@@H]4O[C@H](CO[C@@H]5O[C@@H](C)[C@H](O)[C@@H](O)[C@H]5O)[C@@H](O)[C@H](O)[C@H]4O)cc3O2)cc1O , give the reported parasite load remaining.
169

For the compound shown here, CC(=O)[C@@]1(O)CC[C@H]2[C@@H]3CCC4=CC(=O)CC[C@]4(C)[C@H]3CC[C@@]21C , give the reported parasite load remaining.
0.96

For the compound shown here, O=C1O[C@H]([C@@H](O)CO)C(O)=C1O , give the reported parasite load remaining.
-6.73

For the compound shown here, NCCCS(=O)(=O)O , give the reported parasite load remaining.
106

For the compound shown here, COc1cc(N)c(Cl)cc1C(=O)NC1CCN(CCCOc2ccc(F)cc2)CC1OC (centres undefined) , give the reported parasite load remaining.
96.4

For the compound shown here, CC(=O)[C@H]1CC[C@H]2[C@@H]3C=CC4=CC(=O)CC[C@@]4(C)[C@@H]3CC[C@]12C , give the reported parasite load remaining.
84.3

For the compound shown here, CC[C@H](c1ccc(O)cc1)[C@@H](CC)c1ccc(O)cc1 , give the reported parasite load remaining.
16.7

For the compound shown here, CN1CCN(C2=Nc3ccccc3Sc3ccc(Cl)cc32)CC1 , give the reported parasite load remaining.
45.5

====

Would you mind telling me the reported inhibition of each entry?
Target: 6-phosphogluconate dehydrogenase, decarboxylating (Homo sapiens)
Test: 6PGD enzyme inhibitors, primary screen, biochemical, human, recombinant enzyme, NADPH absorbance (AID 1159550)
Conditions: recombinant 6PGD, NADPH absorbance 341 nm; at 10 µM; stronger effect = higher value
Give your result in % as a bare value.

# query: inhibition | item O=c1[nH]c2cc(Cl)c(Cl)cc2[nH]c1=O | system: 6-phosphogluconate dehydrogenase, decarboxylating (Homo sapiens)
1.1

# query: inhibition | item CC(=O)O[C@H](CC(=O)[O-])C[N+](C)(C)C | system: 6-phosphogluconate dehydrogenase, decarboxylating (Homo sapiens)
-15.2

# query: inhibition | item CCCc1occc(=O)c1/C=C/O | system: 6-phosphogluconate dehydrogenase, decarboxylating (Homo sapiens)
-1.45

# query: inhibition | item COc1c2ccoc2nc2c(OC)c(OCC(O)C(C)(C)O)ccc12 (stereo not given) | system: 6-phosphogluconate dehydrogenase, decarboxylating (Homo sapiens)
-4.68

# query: inhibition | item O[C@H]1[C@H]2c3cc4c(cc3CN3CCC(=C[C@@H]1O)[C@H]23)OCO4 | system: 6-phosphogluconate dehydrogenase, decarboxylating (Homo sapiens)
9.07

# query: inhibition | item COc1cc2c3cc1Oc1c(OC)c(OC)cc4c1[C@@H](Cc1ccc(O)c(c1)Oc1ccc(cc1)C[C@@H]3N(C)CC2)N(C)CC4 | system: 6-phosphogluconate dehydrogenase, decarboxylating (Homo sapiens)
14.7

# query: inhibition | item CC(=O)c1cc2c(cc1O)OC(C)(C)C=C2 | system: 6-phosphogluconate dehydrogenase, decarboxylating (Homo sapiens)
16.8

# query: inhibition | item COc1ccccc1-c1cc(=O)c2cccc(OC)c2o1 | system: 6-phosphogluconate dehydrogenase, decarboxylating (Homo sapiens)
4.44

# query: inhibition | item C=NC(C(=O)NC1C(=O)N2C1SC(C)(C)C2C(=O)O)c1ccccc1 (stereo not given) | system: 6-phosphogluconate dehydrogenase, decarboxylating (Homo sapiens)
-2.44

# query: inhibition | item O=C(O)CN(CC(=O)O)Cc1cc2c(cc1O)Oc1cc(O)c(CN(CC(=O)O)CC(=O)O)cc1C21OC(=O)c2ccccc21 | system: 6-phosphogluconate dehydrogenase, decarboxylating (Homo sapiens)
-1.59

====

Assay: LFS_MB_2R medulloblastoma cell growth inhibition, synergistic combos for chromothripsis tumors, cisplatin combos (AID 1671457);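 also: cells exposed to compound for four days before readout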
Settings: LFS_MB_2R medulloblastoma cells, measured here: combination with cisplatin, at 5 µM, stronger effect = higher value
Label scheme for inhibition: lower than -20% is Criterion not met, -20% and above is Criterion met.

Reported inhibition reaches at least -20% for O=c1c(O)c(-c2ccc(O)c(O)c2)oc2cc(O)ccc12 ?
Criterion met

Reported inhibition reaches at least -20% for CN1CCN(c2c(F)cc3c(=O)c(C(=O)O)cn(CCF)c3c2F)CC1 ?
Criterion met

Reported inhibition reaches at least -20% for CN(N=O)C(=O)NC1C(O)OC(CO)C(O)C1O (stereo unspecified) ?
Criterion met

Reported inhibition reaches at least -20% for CCOC(=O)Nc1ccc(NCc2ccc(F)cc2)nc1N ?
Criterion not met

Reported inhibition reaches at least -20% for N=C(N=C(N)N)N1CCOCC1 ?
Criterion not met

Reported inhibition reaches at least -20% for COC1C(OC(N)=O)C(O)C(Oc2ccc3c(O)c(NC(=O)c4ccc(O)c(CC=C(C)C)c4)c(=O)oc3c2C)OC1(C)C (stereo unspecified) ?
Criterion met
